Sourced from patent US8835428B2

- tested system: hDGAT1 (Homo sapiens, UniProt O75907)
- Construct: host or cells: Sf9 insect cells (baculovirus); microsomal preparation
- Sequence (O75907 whole entry): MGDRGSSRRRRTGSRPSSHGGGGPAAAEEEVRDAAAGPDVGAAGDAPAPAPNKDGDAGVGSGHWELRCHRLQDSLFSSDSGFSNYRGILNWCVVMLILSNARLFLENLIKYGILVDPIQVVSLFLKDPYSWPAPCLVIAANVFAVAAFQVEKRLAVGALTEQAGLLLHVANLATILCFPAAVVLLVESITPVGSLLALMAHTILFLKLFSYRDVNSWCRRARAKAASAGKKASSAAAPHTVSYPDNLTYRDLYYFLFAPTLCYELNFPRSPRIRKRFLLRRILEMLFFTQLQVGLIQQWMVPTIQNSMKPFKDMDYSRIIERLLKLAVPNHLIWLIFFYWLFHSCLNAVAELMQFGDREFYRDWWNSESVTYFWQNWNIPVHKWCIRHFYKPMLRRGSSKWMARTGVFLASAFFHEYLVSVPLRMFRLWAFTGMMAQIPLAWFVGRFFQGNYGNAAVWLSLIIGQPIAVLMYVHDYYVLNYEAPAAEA
- assay method text: In-vitro DGAT1 assay (hDGAT1 microsomes from Sf9 cells, 14C oleoyl CoA, triglyceride formation)
- Format: biochemical
- setup conditions: At 1 μM
observed property: inhibition at 1 µM

CC(C)C(NC(=O)c1cc(-c2ccc(Oc3nc4ccc(F)cc4s3)cc2)no1)C(=O)O (stereo not shown) [Example 335] ... 0 to 50%
CC(C)[C@H](NC(=O)c1cc(-c2ccc(NC(=O)Nc3ccc(Cl)cc3F)cc2)no1)C(=O)O [Example 193] ... 75 to 100%
CC(C)C(NC(=O)c1cc(-c2ccc(NC(=O)Nc3ccc(C4CCCCC4)cc3)cc2)no1)C(=O)O (stereo not shown) [Example 293] ... 75 to 100%
CC(C)c1ccc(NC(=O)Nc2ccc(-c3cc(C(=O)N[C@H](C(=O)O)C(C)C)on3)cc2)cc1 [Example 228] ... 75 to 100%
CC(C)[C@H](NC(=O)c1cc(-c2ccc(NC(=O)Nc3ccc4c(c3)CCC4)cc2)no1)C(=O)O [Example 181] ... 75 to 100%
CC(C)[C@@H](C(=O)O)N(C)C(=O)c1cc(-c2ccc(NC(=O)Nc3cccc(C(F)(F)F)c3)cc2)no1 [Example 310] ... 50 to 75%
CC(C)[C@H](NC(=O)c1cc(-c2ccc(NC(=O)Nc3ccc(F)c(F)c3F)cc2)no1)C(=O)O [Example 191] ... 75 to 100%
